Tested on: Human alphaherpesvirus 3
Experiment: Antiviral activity against Varicella zoster virus Oka infected in HEL cells assessed as reduction in viral plaque formation
Assay type: functional, organism-based
Settings: Human alphaherpesvirus 3, strain Oka vaccine
Please go through the items and note down their pEC50.
Answer as the number alone; pEC50 is minus log10 of concentration in mol/L.

Recorded pEC50 for Cc1cn(C/C=C/CP(=O)(OCOC(=O)C(C)(C)C)OCOC(=O)C(C)(C)C)c(=O)[nH]c1=O , please?
5.72

Quick one: pEC50 for Cc1cn(C/C=C/C[P@@](=O)(N[C@@H](C)C(=O)OCc2ccccc2)Oc2ccccc2)c(=O)[nH]c1=O ?
6.23

# lookup: pEC50 of Cc1cn(C/C=C/CP(=O)(N[C@@H](C)C(=O)OC(C)C)Oc2ccccc2)c(=O)[nH]c1=O (some centres undefined)
5.34

###

Tested on: Human alphaherpesvirus 3
Assay: Antiviral activity against Varicella zoster virus Oka infected in HEL cells assessed as reduction in viral plaque formation
Type: functional, organism-based
Conditions: Human alphaherpesvirus 3, strain Oka vaccine
For each of the compounds below, state its pEC50.
pEC50 (log units): -log10 of the concentration in mol/L.

Query pEC50 on Human alphaherpesvirus 3 for C[C@H](NP(=O)(C/C=C/Cn1cc(Cl)c(=O)[nH]c1=O)Oc1ccccc1)C(=O)OCc1ccccc1 (stereo partly specified)
4.35

Form entry - test system: Human alphaherpesvirus 3; read-out: pEC50; compound: COC(=O)[C@H](C)NP(=O)(C/C=C/Cn1cc(C)c(=O)[nH]c1=O)Oc1ccccc1 (stereo partly specified)
5.09

Quick check: pEC50 on Human alphaherpesvirus 3, item Cc1cn(C/C=C/C[P@](=O)(N[C@@H](C)C(=O)OCc2ccccc2)Oc2ccccc2)c(=O)[nH]c1=O ?
6.41

API: value(readout= pEC50, system= Human alphaherpesvirus 3, query= CCCCCCCCCCCCCCCOCCCOP(=O)(O)C/C=C/Cn1cc(C)c(=O)[nH]c1=O )
4.71

Item Cc1cn(C/C=C/CP(=O)(OCOC(=O)C(C)C)OCOC(=O)C(C)C)c(=O)[nH]c1=O with Human alphaherpesvirus 3 - pEC50?
5.90

###

Tested on: Human betaherpesvirus 5
Experiment: Antiviral activity against Human cytomegalovirus AD169 infected in HEL cells assessed as reduction in viral cytopathic effect
Format: functional, organism-based
Details: Human betaherpesvirus 5, AD169, HEL
pEC50: −log10 of the molar value.
MEASURED_ENDPOINT: pEC50

Give pEC50 (Human betaherpesvirus 5) of the following molecule: Cc1cn(C/C=C/C[P@](=O)(N[C@@H](C)C(=O)OCc2ccccc2)Oc2ccccc2)c(=O)[nH]c1=O
4.52

Quick check: pEC50 on Human betaherpesvirus 5, item CCCCCCCCCCCCCCCOCCCOP(=O)(O)C/C=C/Cn1cc(C)c(=O)[nH]c1=O ?
< 4.41

Look up pEC50 with Human betaherpesvirus 5 for this molecule: Cc1cn(C/C=C/CP(=O)(OCOC(=O)C(C)(C)C)OCOC(=O)C(C)(C)C)c(=O)[nH]c1=O
< 4.39

###

Assay: Cytotoxicity against HEL cells assessed as alteration of cell morphology by microscopic method
Type: cell-based
Details: human
MEASURED_ENDPOINT: MCC

Look up MCC for this compound: Cc1cn(C/C=C/CP(=O)(N[C@@H](C)C(=O)OC(C)C)Oc2ccccc2)c(=O)[nH]c1=O (stereo partly drawn)
> 100 µM

So what's the measured MCC for this one? C[C@H](NP(=O)(C/C=C/Cn1cc(Cl)c(=O)[nH]c1=O)Oc1ccccc1)C(=O)OCc1ccccc1 (stereo partly drawn)
≥ 100 µM

Quick check: MCC of Cc1cn(C/C=C/C[P@@](=O)(N[C@@H](C)C(=O)OCc2ccccc2)Oc2ccccc2)c(=O)[nH]c1=O ?
> 100 µM

Requested field: MCC. Item: Cc1cn(C/C=C/C[P@](=O)(N[C@@H](C)C(=O)OCc2ccccc2)Oc2ccccc2)c(=O)[nH]c1=O
> 100 µM

Quick one: MCC for C[C@H](NP(=O)(C/C=C/Cn1cc(F)c(=O)[nH]c1=O)Oc1ccccc1)C(=O)OCc1ccccc1 (stereo partly drawn) ?
≥ 100 µM

Would you mind telling me what MCC value was observed for COC(=O)[C@H](C)NP(=O)(C/C=C/Cn1cc(C)c(=O)[nH]c1=O)Oc1ccccc1 (stereo partly drawn) ?
> 100 µM

Quick one: MCC for Nc1nc(O)c2ncn(COC(CO)CO)c2n1 ?
≥ 350 µM

Please report the recorded MCC for Cc1cn(C/C=C/CP(=O)(OCOC(=O)C(C)C)OCOC(=O)C(C)C)c(=O)[nH]c1=O .
> 200 µM

###

System: HEL
Assay: Cytostatic activity against HEL cells after 3 days by Coulter counting method
Type: cell-based
Conditions: human, 72 h
So I've got a bunch of compounds here, and I need their CC50 values.

Value lookup for CC50; key = Cc1cn(C/C=C/CP(=O)(N[C@@H](C)C(=O)OC(C)C)Oc2ccccc2)c(=O)[nH]c1=O (stereo partly drawn)
> 100 µM

Request the reported CC50 associated with Cc1cn(C/C=C/C[P@@](=O)(N[C@@H](C)C(=O)OCc2ccccc2)Oc2ccccc2)c(=O)[nH]c1=O
55 µM

# query: CC50 of entry Nc1nc(O)c2ncn(COC(CO)CO)c2n1
> 350 µM

###

Would you kindly list selectivity ratio for each of these compounds?
Test: Selectivity index, ratio of CC50 for HEL cells to EC50 for thymidine kinase deficient Varicella zoster virus 07/1 infected in HEL cells
Type: toxicity, cell-based
Conditions: human, read-out: Ratio CC50/EC50
Reply with the value as a number alone.

Dear colleague, I am looking for the recorded selectivity ratio of the following compound: Cc1cn(C/C=C/CP(=O)(OCOC(=O)C(C)C)OCOC(=O)C(C)C)c(=O)[nH]c1=O
80

State the recorded selectivity ratio for this entry: Cc1cn(C/C=C/CP(=O)(OCOC(=O)C(C)(C)C)OCOC(=O)C(C)(C)C)c(=O)[nH]c1=O
85

Requested read-out: selectivity ratio. Entry: Cc1cn(C/C=C/C[P@@](=O)(N[C@@H](C)C(=O)OCc2ccccc2)Oc2ccccc2)c(=O)[nH]c1=O
141

###

Tested on: Influenza A virus
Experiment: Antiviral activity against Influenza A virus (H1N1) infected in MDCK cells assessed as reduction in viral cytopathic effect
Type: functional, organism-based
Calls of active or inactive are those of the source. The rule behind the calls is not given here.
MEASURED_ENDPOINT: Activity

Recorded Activity, per entry:
COMPOUND	MEASURED_ENDPOINT	RESULT
C[C@H](NP(=O)(C/C=C/Cn1cc(Cl)c(=O)[nH]c1=O)Oc1ccccc1)C(=O)OCc1ccccc1 (stereo not given in full)	Activity	inactive
CCCCCCCCCCCCCCCOCCCOP(=O)(O)C/C=C/Cn1cc(C)c(=O)[nH]c1=O	Activity	inactive
Cc1cn(C/C=C/CP(=O)(OCOC(=O)C(C)C)OCOC(=O)C(C)C)c(=O)[nH]c1=O	Activity	inactive
C[C@H](NP(=O)(C/C=C/Cn1cc(F)c(=O)[nH]c1=O)Oc1ccccc1)C(=O)OCc1ccccc1 (stereo not given in full)	Activity	inactive
COC(=O)[C@H](C)NP(=O)(C/C=C/Cn1cc(C)c(=O)[nH]c1=O)Oc1ccccc1 (stereo not given in full)	Activity	inactive
Cc1cn(C/C=C/C[P@](=O)(N[C@@H](C)C(=O)OCc2ccccc2)Oc2ccccc2)c(=O)[nH]c1=O	Activity	inactive
Cc1cn(C/C=C/CP(=O)(N[C@@H](C)C(=O)OC(C)C)Oc2ccccc2)c(=O)[nH]c1=O (stereo not given in full)	Activity	inactive
CCCCCCCCCCCCCCCOCCCOP(=O)(C/C=C/Cn1cc(C)c(=O)[nH]c1=O)OCOC(=O)OC(C)C (stereo not given)	Activity	inactive
Cc1cn(C/C=C/C[P@@](=O)(N[C@@H](C)C(=O)OCc2ccccc2)Oc2ccccc2)c(=O)[nH]c1=O	Activity	inactive

Returns the measured Activity for the input compound. Input: Cc1cn(C/C=C/CP(=O)(OCOC(=O)C(C)(C)C)OCOC(=O)C(C)(C)C)c(=O)[nH]c1=O
inactive

###

Would you mind telling me the reported pEC50 of each entry?
System: Human betaherpesvirus 5
Test: Antiviral activity against Human cytomegalovirus AD169 infected in HEL cells assessed as reduction in viral cytopathic effect
Type: functional, organism-based
Details: Human betaherpesvirus 5, AD169, HEL
pEC50: −log10 of the molar value.

// pEC50 lookup, key: COC(=O)[C@H](C)NP(=O)(C/C=C/Cn1cc(C)c(=O)[nH]c1=O)Oc1ccccc1 (some centres undefined)
≤ 4.14

Find the recorded pEC50 belonging to C[C@H](NP(=O)(C/C=C/Cn1cc(F)c(=O)[nH]c1=O)Oc1ccccc1)C(=O)OCc1ccccc1 (some centres undefined) and report it.
< 4.70

Returns the measured pEC50 for the input compound. Input: C[C@H](NP(=O)(C/C=C/Cn1cc(Cl)c(=O)[nH]c1=O)Oc1ccccc1)C(=O)OCc1ccccc1 (some centres undefined)
< 4.70

For the compound shown here, CCCCCCCCCCCCCCCOCCCOP(=O)(C/C=C/Cn1cc(C)c(=O)[nH]c1=O)OCOC(=O)OC(C)C (centres undefined) , give the reported pEC50.
< 5.22

Hello, the source for this data is ChEMBL document CHEMBL4196014, in case you need it.
